The origin of these recorded values is ChEMBL document CHEMBL3808274.

measurement.target: UniProt:Q14833
assay.details: Positive allosteric modulation of human mGlu4 receptor assessed as increase in glutamate-induced calcium mobilization
pEC50: −log10 of the molar value.
parameter.measured: pEC50

For orientation, consider the following solved cases.
- cpd.smiles: "O=C(Nc1cnn(S(=O)(=O)c2ccc(C(F)(F)F)cc2)c1)c1ccccn1"
  pEC50: 6.62
- cpd.smiles: "O=C(Nc1ccn(S(=O)(=O)Cc2ccc(F)cc2Cl)c1)c1ccccn1"
  pEC50: 7.08

A: O=C(Nc1ncc(S(=O)(=O)Cc2ccc(Cl)cc2F)s1)c1ccccn1
B: CCc1nc(NC(=O)c2ccccn2)sc1S(=O)(=O)Cc1ccc(Cl)cc1F
INPUT: Hi there! Just curious which has the higher pEC50 between A and B . Your answer should be the label attached to the chosen record.
OUTPUT: A
(A: 7.08, B: 6.66)

* * *

measurement.target: Metabotropic glutamate receptor 4 (Homo sapiens, UniProt Q14833)
Sequence (Q14833 whole entry): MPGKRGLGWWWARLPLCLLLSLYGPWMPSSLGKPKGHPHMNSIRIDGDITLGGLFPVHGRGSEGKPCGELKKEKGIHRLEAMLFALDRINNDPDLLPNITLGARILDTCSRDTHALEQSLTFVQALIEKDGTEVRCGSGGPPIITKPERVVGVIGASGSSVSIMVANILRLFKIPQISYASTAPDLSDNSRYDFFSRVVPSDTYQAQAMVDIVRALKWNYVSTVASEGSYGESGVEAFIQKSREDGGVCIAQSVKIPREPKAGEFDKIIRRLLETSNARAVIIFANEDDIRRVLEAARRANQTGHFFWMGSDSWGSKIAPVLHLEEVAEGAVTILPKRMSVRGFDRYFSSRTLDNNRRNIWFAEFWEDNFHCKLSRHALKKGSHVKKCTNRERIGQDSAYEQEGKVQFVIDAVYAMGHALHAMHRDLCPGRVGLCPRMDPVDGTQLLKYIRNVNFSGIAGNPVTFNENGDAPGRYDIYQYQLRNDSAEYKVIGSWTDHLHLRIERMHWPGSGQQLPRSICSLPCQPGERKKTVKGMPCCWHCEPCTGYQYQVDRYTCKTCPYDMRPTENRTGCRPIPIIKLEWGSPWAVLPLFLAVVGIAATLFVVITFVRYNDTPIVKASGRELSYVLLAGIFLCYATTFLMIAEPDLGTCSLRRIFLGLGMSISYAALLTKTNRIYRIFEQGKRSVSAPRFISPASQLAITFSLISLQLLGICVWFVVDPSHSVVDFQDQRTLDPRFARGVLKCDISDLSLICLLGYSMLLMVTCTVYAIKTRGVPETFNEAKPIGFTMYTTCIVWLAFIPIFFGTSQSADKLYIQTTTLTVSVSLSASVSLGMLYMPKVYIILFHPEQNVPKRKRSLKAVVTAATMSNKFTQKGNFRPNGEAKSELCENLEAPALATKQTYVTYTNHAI
assay.details: Positive allosteric modulation of human mGlu4 receptor assessed as increase in glutamate-induced calcium mobilization
pEC50: −log10 of the molar value.
parameter.measured: pEC50

- molecule: "Cc1nc(NC(=O)c2ccccn2)sc1S(=O)(=O)Cc1ccccc1Cl"
  observed.result: 6.35

P: Cc1cccc(S(=O)(=O)n2ccc(NC(=O)c3ccccn3)c2)c1
Q: O=C(Nc1ccn(S(=O)(=O)Cc2ccc(Cl)cc2)c1)c1ccccn1
R: O=C(Nc1ccn(S(=O)(=O)c2ccc(Cl)cc2)c1)c1ccccn1
INPUT: Highest pEC50 first, then in falling order down to the smallest. Write the labels out in the order the request specifies.
OUTPUT: P, Q, R
(P: 6.98, Q: 6.40, R: 5.91)

1: Cc1nc(NC(=O)c2ccccn2)sc1S(=O)(=O)Cc1c(F)cccc1F
2: Cc1ccc(S(=O)(=O)n2ccc(NC(=O)c3ccccn3)c2)cc1C
3: CC(c1ccccc1)S(=O)(=O)n1ccc(NC(=O)c2ccccn2)c1 (configuration not stated)
4: Cc1ccc(S(=O)(=O)n2ccc(NC(=O)c3ccccn3)c2)cc1
INPUT: Put these in order: smallest pEC50 first, largest last. Write the labels out in the order the request specifies.
OUTPUT: 3, 1, 4, 2
(3: 5.53, 1: 6.53, 4: 6.91, 2: 7.21)

* * *

measurement.target: Metabotropic glutamate receptor 4 (Homo sapiens, UniProt Q14833)
assay.details: Positive allosteric modulation of human mGlu4 receptor assessed as increase in glutamate-induced calcium mobilization at 30 uM relative to PHCCC
Type: functional
parameter.measured: %max (%)

For orientation, consider the following solved cases.
- molecule: "O=C(Nc1ccn(S(=O)(=O)c2ccc(F)cc2)c1)c1ccccn1"
  %max, %: 78.8
- molecule: "Cc1cccc(CS(=O)(=O)n2ccc(NC(=O)c3ccccn3)c2)c1"
  %max, %: 112
- molecule: "Cc1nc(NC(=O)c2ccccn2)sc1S(=O)(=O)Cc1ccccc1Cl"
  %max, %: 94.8

1: O=C(Nc1ccn(S(=O)(=O)Cc2cccc(F)c2)c1)c1ccccn1
2: O=C(Nc1cnn(S(=O)(=O)c2ccc(C(F)(F)F)cc2)c1)c1ccccn1
3: CC(c1ccccc1)S(=O)(=O)n1ccc(NC(=O)c2ccccn2)c1 (stereo unspecified)
INPUT: Highest %max first, then in falling order down to the smallest. Write the labels out in the order the request specifies.
OUTPUT: 1, 3, 2

a: O=C(Nc1ccn(S(=O)(=O)c2ccc(Cl)nc2)c1)c1ccccn1
b: O=C(Nc1ccn(S(=O)(=O)Cc2ccc(F)cc2F)c1)c1ccccn1
INPUT: Record comparison, field %max: mark the lower of a and b . Your answer should be the label attached to the chosen record.
OUTPUT: a

* * *

measurement.target: Metabotropic glutamate receptor 4 (Homo sapiens)
assay.details: Positive allosteric modulation of human mGlu4 receptor assessed as increase in glutamate-induced calcium mobilization at 30 uM relative to PHCCC
Format: functional
parameter.measured: %max (%)

For orientation, consider the following solved cases.
- cpd.smiles: "Cc1ccc(S(=O)(=O)n2ccc(NC(=O)c3ccccn3)c2)cc1C"
  measurement.target: "Metabotropic glutamate receptor 4 (Homo sapiens)"
  %max / %: 80.3
- cpd.smiles: "Cc1cc(S(=O)(=O)n2ccc(NC(=O)c3ccccn3)c2)ccc1F"
  measurement.target: "Metabotropic glutamate receptor 4 (Homo sapiens)"
  %max / %: 98.9
- cpd.smiles: "O=C(Nc1ccn(S(=O)(=O)C(F)(F)c2ccccc2F)c1)c1ccccn1"
  measurement.target: "Metabotropic glutamate receptor 4 (Homo sapiens)"
  %max / %: 33.5
- cpd.smiles: "O=C(Nc1ccn(S(=O)(=O)c2ccc(Cl)cn2)c1)c1ccccn1"
  measurement.target: "Metabotropic glutamate receptor 4 (Homo sapiens)"
  %max / %: 83
- cpd.smiles: "CCc1nc(NC(=O)c2ccccn2)sc1S(=O)(=O)Cc1c(F)cccc1F"
  measurement.target: "Metabotropic glutamate receptor 4 (Homo sapiens)"
  %max / %: 109
- cpd.smiles: "Cc1cc(S(=O)(=O)n2ccc(NC(=O)c3ccccn3)c2)ccc1Cl"
  measurement.target: "Metabotropic glutamate receptor 4 (Homo sapiens)"
  %max / %: 72.2
- cpd.smiles: "O=C(Nc1ccn(S(=O)(=O)Cc2ccccc2Cl)c1)c1ccccn1"
  measurement.target: "Metabotropic glutamate receptor 4 (Homo sapiens)"
  %max / %: 119
- cpd.smiles: "O=C(Nc1ccn(S(=O)(=O)Cc2ccc(F)cc2Cl)c1)c1ccccn1"
  measurement.target: "Metabotropic glutamate receptor 4 (Homo sapiens)"
  %max / %: 122

I: O=C(Nc1ncc(S(=O)(=O)Cc2ccc(Cl)cc2F)s1)c1ccccn1
II: Cc1nc(NC(=O)c2ccccn2)sc1S(=O)(=O)Cc1c(F)cccc1F
INPUT: Record comparison, field %max: mark the lower of I and II . Your answer should be the label attached to the chosen record.
OUTPUT: I
(I: 35.1%, II: 99.3%)

* * *

assay.details: Drug level in rat brain at 10 mg/kg, po incubated for 1 hr
Type: ADME, organism-based
condition.context: read-out: Drug uptake
parameter.measured: concentration at 1 h (ng/g)
Answer with a number only, understood to be in ng/g.

INPUT: Entry under review: Cc1cc(S(=O)(=O)n2ccc(NC(=O)c3ccccn3)c2)ccc1Cl . Reported concentration at 1 h?
OUTPUT: 8.1

* * *

assay.details: Half life in rat at 1 mg/kg, iv
Type: ADME, organism-based
condition.context: in vivo
# key: entry, value: half-life
Answer with a number only, understood to be in h.

- cpd.smiles: "Cc1cc(S(=O)(=O)n2ccc(NC(=O)c3ccccn3)c2)ccc1Cl"
  units.text: "h"
  half-life: 2.78

// below: half-life requested for another compound
INPUT: Entry under review: Cc1ccc(S(=O)(=O)n2ccc(NC(=O)c3ccccn3)c2)cc1C . Reported half-life?
OUTPUT: 4.2

* * *

assay.details: Plasma clearance in rat at 1 mg/kg, iv
Assay type: ADME, organism-based
parameter.measured: clearance (mL/min/kg)
Answer with a number only, understood to be in mL/min/kg.

- cpd.smiles: "Cc1cc(S(=O)(=O)n2ccc(NC(=O)c3ccccn3)c2)ccc1Cl"
  clearance (mL/min/kg): 86.8

INPUT: Entry under review: Cc1ccc(S(=O)(=O)n2ccc(NC(=O)c3ccccn3)c2)cc1C . Reported clearance?
OUTPUT: 37.2

* * *

assay.details: Mean residence time in rat at 1 mg/kg, iv
Type: ADME, organism-based
condition.context: in vivo
parameter.measured: MRT (h)
Answer with a number only, understood to be in h.

- cpd.smiles: "Cc1cc(S(=O)(=O)n2ccc(NC(=O)c3ccccn3)c2)ccc1Cl"
  units.text: "h"
  observed.result: 1.41

// below: MRT requested for another compound
INPUT: Entry under review: Cc1ccc(S(=O)(=O)n2ccc(NC(=O)c3ccccn3)c2)cc1C . Reported MRT?
OUTPUT: 2.48

* * *

assay.details: Plasma concentration in rat hepatic portal vein at 10 mg/kg, po coadministered with panirreversible P450 inhibitor ABT incubated for 1 hr
Format: ADME, organism-based
parameter.measured: concentration at 1 h (ng/mL)
Answer with a number only, understood to be in ng/mL.

INPUT: Entry under review: Cc1cc(S(=O)(=O)n2ccc(NC(=O)c3ccccn3)c2)ccc1Cl . Reported concentration at 1 h?
OUTPUT: 764

* * *

assay.details: Ratio of drug level in rat brain to plasma at 10 mg/kg, po coadministered with panirreversible P450 inhibitor ABT incubated for 1 hr
Type: ADME, organism-based
condition.context: read-out: BPR
parameter.measured: Kp at 1 h
Lab note: jot the number down without any unit.

INPUT: Entry under review: Cc1cc(S(=O)(=O)n2ccc(NC(=O)c3ccccn3)c2)ccc1Cl . Reported Kp at 1 h?
OUTPUT: 1

* * *

assay.details: Drug level in rat brain at 10 mg/kg, po coadministered with panirreversible P450 inhibitor ABT incubated for 1 hr
Format: ADME, organism-based
condition.context: read-out: Drug uptake
parameter.measured: concentration at 1 h (ng/g)
Answer with a number only, understood to be in ng/g.

INPUT: Entry under review: Cc1cc(S(=O)(=O)n2ccc(NC(=O)c3ccccn3)c2)ccc1Cl . Reported concentration at 1 h?
OUTPUT: 176
